Tested on: BT-549 breast
RUN_DESCRIPTION: NCI tumour cell line growth inhibition, 48 h
GI50 values, listed per item

Consider the following illustrative entries.
[
  {
    "COMPOUND": "COc1ccc(S(=O)(=O)N(C(C)=O)c2ccccc2/C=C/c2cc[n+]([O-])cc2)cc1",
    "STUDY_SYSTEM": "BT-549 breast",
    "GI50": "0.56 µM"
  },
  {
    "COMPOUND": "Cc1cc(O)c(-c2ccc([C@@H](C)CN(C)C)cc2)c2c1[nH]c(=O)c1sccc12",
    "STUDY_SYSTEM": "BT-549 breast",
    "GI50": "0.574 µM"
  },
  {
    "COMPOUND": "O=C1NC(c2ccccc2)C2(C(=O)O)CN(C3CC3)c3cc(N4CCNCC4)c(F)cc3C2N1 (stereo not given)",
    "STUDY_SYSTEM": "BT-549 breast",
    "GI50": "> 100 µM"
  },
  {
    "COMPOUND": "CCC1=C(CC2NCCc3ccccc32)CC2c3cc(OC)c(OC)cc3CCN2C1 (stereo not given)",
    "STUDY_SYSTEM": "BT-549 breast",
    "GI50": "9.07 µM"
  }
]

Here is the next item to consider.
Input line: Quick one: GI50 of Cc1ccc(C(=O)NC2CC2)cc1-c1ccc2[nH]ncc2c1 ?
Output line: > 25 µM

====

Quick reference for GI50 among some compounds
System: OVCAR-5 ovarian
RUN_DESCRIPTION: NCI tumour cell line growth inhibition, 48 h

[
  {
    "COMPOUND": "O=C(/C=C/C12c3ccccc3C(c3ccccc31)C1C(=O)NC(=O)C12)c1ccccc1 (centres undefined)",
    "STUDY_SYSTEM": "OVCAR-5 ovarian",
    "GI50": "2.01 µM"
  },
  {
    "COMPOUND": "CC(C)c1ccc(NC(=O)Cc2ccc(Nc3ncnc4cc(-c5cnn(CCN(C)C)c5)ccc34)cc2)cc1",
    "STUDY_SYSTEM": "OVCAR-5 ovarian",
    "GI50": "1.44 µM"
  },
  {
    "COMPOUND": "O=C1N=C(Nc2nc(-c3csc(NC4=NC(=O)/C(=C\\c5ccccc5)S4)n3)cs2)S/C1=C/c1ccccc1",
    "STUDY_SYSTEM": "OVCAR-5 ovarian",
    "GI50": "34 µM"
  },
  {
    "COMPOUND": "CCN(CC)CCCCNc1c2ccc(Cl)cc2nc2ccc(OC)cc12",
    "STUDY_SYSTEM": "OVCAR-5 ovarian",
    "GI50": "0.465 µM"
  },
  {
    "COMPOUND": "Cc1ccc(C(=O)NC2CC2)cc1-c1ccc2[nH]ncc2c1",
    "STUDY_SYSTEM": "OVCAR-5 ovarian",
    "GI50": "> 25 µM"
  }
]

Input line: Recorded GI50 for O=P(O)(O)OCC1OC(n2cnc3c(NCc4ccccc4)ncnc32)C(O)C1O (centres undefined) , please?
Output line: 3.11 µM

Input line: Further, for CCC[CH2][Sn]1([CH2]CCC)[S]CC[N]1S(=O)(=O)c1ccc(C)cc1 ?
Output line: 2.82 µM

Input line: Repeat for the following compound: CC/C(=C/c1ccc(OC)cc1OC)[N+](=O)[O-]
Output line: 7.59 µM

Input line: How about O=C([O-])CC(=O)[O-].[NH-][C@@H]1CCCC[C@H]1[NH-].[Pt+4] ?
Output line: > 63.9 µM

Input line: Entry to check: COc1ccc(S(=O)(=O)N(C(C)=O)c2ccccc2/C=C/c2cc[n+]([O-])cc2)cc1
Output line: 3.26 µM

====

Tested on: MALME-3M melanoma
RUN_DESCRIPTION: NCI tumour cell line growth inhibition, 48 h
PROPERTY: TGI (µM)
A number alone suffices; assume µM.

[
  {
    "COMPOUND": "N#Cc1cccc(N2C(=O)C3C4C=CC(C3C2=O)C2C(=O)N(c3cccc(C#N)c3)C(=O)C42)c1 (stereo not given)",
    "STUDY_SYSTEM": "MALME-3M melanoma",
    "UOM": "µM",
    "TEST_RESULT": 99.4
  }
]

Could you now look at the following compound, please?
Input line: Consider the compound shown here: CC(=N/NC(=S)N(C)C)/C(=N\NC(=S)N(C)C)c1ccccc1 What is its recorded TGI?
Output line: 3.5

====

Listing of entries alongside the reported TGI.
System: ACHN renal
RUN_DESCRIPTION: NCI tumour cell line growth inhibition, 48 h
State the answer as a number, implicitly in µM.

Input line: Please provide the recorded TGI for O=C(NC(C(F)(F)F)(C(F)(F)F)P(=O)(Cc1ccccc1)Cc1ccccc1)C(C(F)(F)F)C(F)(F)F , tested on ACHN renal.
Output line: 42.7

Input line: Quick one: O=C([C@H](O)[C@@H](O)c1cccc(Cl)c1)C12CC3CC(CC(C3)C1)C2
Output line: 3.56

Input line: Try the molecule c1ccc(OC2=NC3=S(S2)SC(Oc2ccccc2)=N3)cc1
Output line: 42.5

Input line: Continue with CCOC(=O)C(NC(=O)c1cccc(Cl)c1)(Nc1cccc(C)c1)C(F)(F)F (centres undefined)
Output line: 29.8

====

Tested on: PC-3 prostate
RUN_DESCRIPTION: NCI tumour cell line growth inhibition, 48 h
PROPERTY: TGI

[
  {
    "COMPOUND": "CC1(C)C=C(/C=C2/N(S(=O)(=O)C(F)(F)F)C(/C=C3/N(S(=O)(=O)C(F)(F)F)C(C)(C#N)CC3(C)C)=CC2(C)C)N=C1/C=C1/CC(C)(C)C(=O)N1 (configuration not stated)",
    "TEST_RESULT": "> 100 µM"
  }
]

Input line: Item C=C1C[C@@H]2O[C@H]3[C@H]4[C@@H](C[C@@H](C)[C@@H](OC(C)=O)[C@H]42)[C@@H](C)CO[C@@]3(C)[C@H](OC(=O)CCCCCCC)CC1=O has what recorded TGI?
Output line: 22.5 µM

Input line: Next up: COc1cc2nccc(Oc3ccc(NC(=O)c4cn(C(C)C)c(=O)n(-c5ccc(F)cc5)c4=O)cc3F)c2cc1OC
Output line: > 100 µM

Input line: Entry CN1CCN(CCCOc2cc(O)c3c(=O)cc(-c4ccccc4)oc3c2)CC1 please
Output line: > 100 µM

Input line: One more compound: COC(=O)N[C@H]1CCc2c(Cl)c(OC)c(OC)c(OC)c2-c2ccc(SC)c(=O)cc21
Output line: > 70.3 µM

Input line: Similarly, C=C1CCC2C3(C)COC(c4ccccc4Cl)OC3CCC2(C)C1/C=C/C1=CCOC1=O (configuration not stated) ?
Output line: > 100 µM

Input line: And CC(C)=CCC[C@@H](C)C1=C(Nc2ccccc2F)C(O)=C(C)C(=O)C1=O ?
Output line: > 100 µM

Input line: Could you do the same for CO/N=C(\COc1ccc2oc(-c3ccccc3)cc(=O)c2c1)c1ccc(F)cc1 , please?
Output line: 57.3 µM

Input line: Continue with CCOC(=O)C1=C(C)NC(c2ccco2)=C(C#N)C1c1cccc([N+](=O)[O-])c1 (configuration not stated)
Output line: 0.0554 µM

Input line: // repeat for CC(C)(C)OC(=O)N[C@@H](Cc1ccccc1)C(=O)N(Cc1ccccc1)C1(C(=O)NCc2ccccc2)CCN(Cc2ccccc2)CC1 and report
Output line: > 100 µM

Input line: Please give the result for COc1ccc2[nH]c(C(=O)OCc3ccc4c(Cl)cc(Cl)c(O)c4n3)cc2c1 too.
Output line: 2.57 µM

Input line: Here is the next compound: O=C1CSC(c2c[nH]c3ccccc23)N1c1ccc(Cl)cc1Cl (configuration not stated)
Output line: > 100 µM

====

System: K-562 leukemia
RUN_DESCRIPTION: NCI tumour cell line growth inhibition, 48 h
TGI for assorted compounds

Observe how each entry below is paired with its result.
[
  {
    "COMPOUND": "O=[N+]([O-])c1ccc(-c2csc(=[N+]3CCCCC3)s2)cc1",
    "TEST_RESULT": "> 100 µM"
  },
  {
    "COMPOUND": "CCOC(=O)C(NC(=O)c1cccc(Cl)c1)(Nc1cccc(C)c1)C(F)(F)F (stereo unspecified)",
    "TEST_RESULT": "> 100 µM"
  },
  {
    "COMPOUND": "CC1(C)N=C(N)N=C(N)N1c1cccc(Cl)c1",
    "TEST_RESULT": "> 100 µM"
  }
]

We now examine a further compound.
Input line: Which TGI reading was recorded for the compound CC1c2[nH]c3ccccc3c2CCN1O (stereo unspecified) ?
Output line: > 100 µM

====

Tested on: OVCAR-8 ovarian
RUN_DESCRIPTION: NCI tumour cell line growth inhibition, 48 h
Entries annotated with measured TGI

Here's what some known entries look like.
[
  {
    "COMPOUND": "C/C(=C\\CSCC(N)C(=O)O)CC/C=C(\\C)CNc1ccccc1 (stereo unspecified)",
    "TGI": "> 100 µM"
  },
  {
    "COMPOUND": "C1=CCCC=CCC1.C[PH+](C)C.C[PH+](C)C.C[PH+](C)C.[Cl-].[Ir]",
    "TGI": "> 100 µM"
  },
  {
    "COMPOUND": "COCCNc1cncc(C(N)=O)c1",
    "TGI": "> 100 µM"
  },
  {
    "COMPOUND": "O=C1Nc2cc(F)ccc2C1=O",
    "TGI": "> 100 µM"
  },
  {
    "COMPOUND": "COc1ccc2c(c1)CCc1c-2n[nH]c1-c1[nH]nc2c1CCc1cc(OC)ccc1-2",
    "TGI": "> 100 µM"
  }
]

# input for lookup
Input line: Hi! What's the reported TGI for CC(C)(C)OC(=O)N[C@@H](Cc1ccccc1)C(=O)N(Cc1ccccc1)C1(C(=O)NCc2ccccc2)CCN(Cc2ccccc2)CC1 on OVCAR-8 ovarian?
Output line: > 100 µM
